measured target: T1, Human OSM (human, UniProt P13725 26-221)
T1 construct: Recombinant human OSM; also called hOSM; human Oncostatin M
T1 sequence: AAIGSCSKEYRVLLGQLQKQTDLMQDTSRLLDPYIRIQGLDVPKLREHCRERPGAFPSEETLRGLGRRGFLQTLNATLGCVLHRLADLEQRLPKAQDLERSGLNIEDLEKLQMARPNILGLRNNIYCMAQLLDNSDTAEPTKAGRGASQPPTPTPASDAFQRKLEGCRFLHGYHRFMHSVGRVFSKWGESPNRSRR
experiment: BIAcore kinetics, purified antibody
Define the label as met when Kd is strictly less than 0.4 nM and as not met in all remaining cases.

Record excerpt, results attached:
Humanised 10G8 H0L1 (antibody, human IgG1, kappa, V domains shown, IgG1 kappa; mature H0 heavy chain and mature L1 light chain; also called Humanised 10G8 H0L1 parent) VH: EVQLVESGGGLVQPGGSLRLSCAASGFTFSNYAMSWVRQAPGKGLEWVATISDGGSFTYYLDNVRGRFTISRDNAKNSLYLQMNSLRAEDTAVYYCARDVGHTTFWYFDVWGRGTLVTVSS VL: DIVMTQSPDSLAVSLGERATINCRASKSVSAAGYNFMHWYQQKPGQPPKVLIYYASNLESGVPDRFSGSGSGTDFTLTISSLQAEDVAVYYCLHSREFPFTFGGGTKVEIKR ... met
Humanised 10G8 H1L1 (antibody, V domains shown) VH: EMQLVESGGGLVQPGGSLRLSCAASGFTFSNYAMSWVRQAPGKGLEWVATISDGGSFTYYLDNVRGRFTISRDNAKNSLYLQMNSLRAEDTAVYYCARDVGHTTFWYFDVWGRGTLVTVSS VL: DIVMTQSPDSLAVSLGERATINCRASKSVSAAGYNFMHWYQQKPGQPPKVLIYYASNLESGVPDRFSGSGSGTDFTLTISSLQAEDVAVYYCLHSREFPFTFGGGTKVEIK ... not met
Humanised 10G8 H2L1 (antibody, V domains shown) VH: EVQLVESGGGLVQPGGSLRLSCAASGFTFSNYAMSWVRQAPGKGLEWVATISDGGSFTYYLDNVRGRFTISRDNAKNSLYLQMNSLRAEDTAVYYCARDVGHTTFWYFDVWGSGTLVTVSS VL: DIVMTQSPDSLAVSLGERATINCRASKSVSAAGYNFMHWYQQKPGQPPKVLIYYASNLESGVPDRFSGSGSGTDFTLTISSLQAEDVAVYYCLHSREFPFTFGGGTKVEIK ... met
10G8 chimaera (antibody, human IgG1, kappa, V domains shown, Mouse V regions on human gamma 1 wild type and human kappa constant regions; the entries called VH/VL domain (chimera) are full chains; also called 10G8 chimera; 10G8 Chimæra) VH: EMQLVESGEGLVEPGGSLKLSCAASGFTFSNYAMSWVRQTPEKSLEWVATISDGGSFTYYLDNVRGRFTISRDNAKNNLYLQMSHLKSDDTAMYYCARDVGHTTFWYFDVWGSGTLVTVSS VL: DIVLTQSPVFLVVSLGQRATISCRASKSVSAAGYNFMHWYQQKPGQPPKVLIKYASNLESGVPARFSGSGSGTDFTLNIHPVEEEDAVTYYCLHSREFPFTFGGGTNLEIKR ... not met

Lookup: Kd under 0.4 nM? Item: Humanised 10G8 H0L4 (antibody, V domains shown) VH: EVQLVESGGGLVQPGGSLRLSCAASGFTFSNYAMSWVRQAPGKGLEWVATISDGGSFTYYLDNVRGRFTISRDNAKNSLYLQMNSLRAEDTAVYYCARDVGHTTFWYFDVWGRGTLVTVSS VL: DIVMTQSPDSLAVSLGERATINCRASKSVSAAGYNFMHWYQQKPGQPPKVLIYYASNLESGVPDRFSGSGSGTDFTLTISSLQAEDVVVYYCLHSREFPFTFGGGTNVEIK
Found: met
